Task for the reader: assign each of the following binders its reported log10(Kd).
Molecular target: T1, PUF4 RNA-binding domain (Saccharomyces cerevisiae, UniProt P25339 537-888)
T1 sequence: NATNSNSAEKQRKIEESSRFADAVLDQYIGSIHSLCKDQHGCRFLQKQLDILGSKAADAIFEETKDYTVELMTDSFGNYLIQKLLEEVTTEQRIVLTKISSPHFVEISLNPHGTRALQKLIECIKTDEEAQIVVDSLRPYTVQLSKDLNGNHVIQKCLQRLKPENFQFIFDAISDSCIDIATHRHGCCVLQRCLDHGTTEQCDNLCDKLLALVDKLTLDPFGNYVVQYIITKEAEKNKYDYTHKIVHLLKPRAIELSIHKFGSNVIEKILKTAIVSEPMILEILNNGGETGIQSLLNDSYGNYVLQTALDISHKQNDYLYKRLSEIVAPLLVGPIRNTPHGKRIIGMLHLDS
Experiment: Mg; RNA-MaP; 20 mM Na-HEPES pH 7.4, 30 mM KOAc, 0.75 mM MgCl2, 0.1% Tween-20, 5% glycerol, 0.1 mg/mL BSA, 2 mM DTT; 25 C; 0.0125-409.6 nM protein
Conditions: tags: N-His6-TEV cleaved; C-SNAP kept, Cy3B-labelled; label: tethered on chip by stalled RNA polymerase
Please keep in mind that the values are log10 of Kd expressed in nM.

Endpoint output: log10(Kd) of UCUCUUUUUCGUAUAUUAUCUCUU (ssRNA) [Ie_S1_P4E.1_K4.1_C4.1_H4.1_[+1TTC]_A4.1_F4.1_T4.1] . Value?
1.32

Endpoint output: log10(Kd) of Ic_S2_P4E.1_K4.1_C4.1_H4.1_A4.1_[A6T]_[T7C]_F4.1_[T8A]_[A9G]_T4.1 (ssRNA) RNA: UUUGAUUAAUAUGAUAUCGUUCUUUCUUGUAUUCAGUUCUUUCUCGAUAUCAUAUUAAUCUUU . Value?
2.54

Endpoint output: log10(Kd) of UCUCUUUGUACCACCUCUCUU (ssRNA) [Ic_S1_P4E.1_K4.1_C4.1_H4.1_A4.1_[T5C]_[A6C]_[T7A]_F4.1_[T8C]_[A9C]_T4.1] . Value?
2.76

Endpoint output: log10(Kd) of Ib_S2_P3E.1_K3.1_C3.1_H3.1_[G2T]_[T3A]_A3.1_F3.1_T3.1 (ssRNA) RNA: UUUGAUUAAUAUGAUAUCGUUCUUUCUUUAAUAUAUUCUUUCUCGAUAUCAUAUUAAUCUUU . Value?
3.16

Endpoint output: log10(Kd) of Ic_S4_P3E.1_K3.1_C3.1_H3.1_A3.1_[A6T]_F3.1_[T7A]_T3.1 (ssRNA) RNA: UUUGACAACUGAUCGUUCUUUCUUGUAUUAAUUCUUUCUCGAUCAGUUGUCUUU . Value?
1.91

Endpoint output: log10(Kd) of UCUCUUUCUUGUAUUUUAUUUCUCUU (ssRNA) [Id_iii_S1_P4E.8_K4.4_C4.3_H4.1_A4.2_F4.1_T4.2_[G10T]] . Value?
0.39

Endpoint output: log10(Kd) of UCUCUUUGUAUUUUCCUAUUAUCUCUU (ssRNA) [Ie_S1_P5E.1_K5.1_C5.1_H5.1_A5.1_[+6TTCCT]_F5.1_T5.1] . Value?
1.43

Endpoint output: log10(Kd) of Ib_S4_P5E.1_K5.1_C5.1_H5.1_A5.1_[A7T]_F5.1_[T8C]_T5.1 (ssRNA) RNA: UUUGACAACUGAUCGUUCUUUCUUGUAUUUCUAUUCUUUCUCGAUCAGUUGUCUUU . Value?
0.49

Endpoint output: log10(Kd) of UCUCUUUUCGUAUAUUAUCUCUU (ssRNA) [Ie_S1_P4E.1_K4.1_C4.1_H4.1_[+1TC]_A4.1_F4.1_T4.1] . Value?
1.39

Endpoint output: log10(Kd) of Ib_S2_P5E.1_K5.1_C5.1_H5.1_A5.1_[T5A]_F5.1_[T9A]_T5.1 (ssRNA) RNA: UUUGAUUAAUAUGAUAUCGUUCUUUCUUGUAAUAUAAUUCUUUCUCGAUAUCAUAUUAAUCUUU . Value?
0.40
